system: Mycobacterium tuberculosis; experiment: Antimycobacterial activity against Mycobacterium tuberculosis H37Rv after 7 days by resazurin microtiter plate assay; format: functional; conditions: 168 h
READOUT_LABEL: MIC (µg/mL)
Give bare numbers, in µg/mL.

Cc1ccc2c3c([nH]c2c1)-c1c(cnn1-c1ccccc1)CCC3 25
Cc1ccc2c3c([nH]c2c1)-c1n[nH]cc1CCC3 25
Oc1ncc2c(n1)-c1[nH]c3ccc(Cl)cc3c1CCC2 3.12

Batch: MIC for all items listed.
1. Cc1cccc2c3c([nH]c12)-c1n[nH]cc1CCC3
2. Cc1cccc2c3c([nH]c12)-c1nocc1CCC3
3. Cc1ccc2[nH]c3c(c2c1)CCCc1cnc(S)nc1-3
4. Cc1cccc2c3c([nH]c12)-c1c(cnn1-c1ccccc1)CCC3
5. Cc1ccc2c3c([nH]c2c1)-c1nocc1CCC3
6. Cc1cccc2c3c([nH]c12)-c1nc(S)ncc1CCC3
7. Cc1ccc2[nH]c3c(c2c1)CCCc1conc1-3
8. O=C1/C(=C/O)CCCc2c1[nH]c1ccc(Cl)cc21

Ans:
25
25
50
25
25
50
50
25

Q: Hello, please tell me recorded MIC for this one: Clc1ccc2[nH]c3c(c2c1)CCCc1cnn(-c2ccccc2)c1-3
Ans: 3.12

Each recorded value in this set is attributed to ChEMBL document CHEMBL1926563.
